Test system: Ox receptor
ASSAY PROTOCOL: Ox receptor binding, [3H]-rilmenidine displacement in rat brain homogenates

{"COMPOUND": "C[C@H](NC1=NCCO1)C1CCCCC1 [(S)-(+)-O504]", "Selectivity Ox/α2": 1.5}
{"COMPOUND": "CCC1CCCC(CC)C1NC1=NCCO1 (centres unmarked)", "Selectivity Ox/α2": 12}
{"COMPOUND": "C1CCC(C(NC2=NCCO2)C2CCCCC2)CC1", "Selectivity Ox/α2": 5.5}
{"COMPOUND": "c1ccc(C(NC2=NCCO2)c2ccccc2)cc1", "Selectivity Ox/α2": 2.4}
{"COMPOUND": "C[C@@H](NC1=NCCO1)C1CCCCC1 [(R)-(−)-O504]", "Selectivity Ox/α2": 18}
